# method-summary: Assessment of solubility (McIlvaine buffers, 24 h shake, UPLC-UV)
# Type: physicochemical
# condition-parameters: pH 4.5, aqueous buffer, kinetic from dmso stock
Each entry gets -1 if its solubility at 24 h stays under 70 µg/mL, and 1 if its solubility at 24 h is 70 µg/mL or above.

Here's what some known entries look like.
compound=COc1c(C(=O)O)cnn1-c1cccc(-c2cccc(C)c2OCc2cc3c(cc2C)CN(C2CCOCC2)CC3)n1 class_assignment=1
compound="Cc1cccc(-c2cccc(-n3ncc(C(=O)O)c3OC(C)C)n2)c1OCc1ccc2c(c1)CCN(C1CCOC1)C2 (stereo not drawn)" class_assignment=1
compound=CCOc1c(C(=O)O)cnn1-c1cccc(-c2cccc(C)c2OCc2ccc3c(c2)CCN(C2COC2)C3)n1 class_assignment=-1
compound=CCOc1c(C(=O)O)cnn1-c1cccc(-c2cccc(C)c2OCc2ccc3c(c2F)CCN(C2CCOCC2)C3)n1 class_assignment=-1
compound=COc1c(C(=O)O)cnn1-c1cccc(-c2ccccc2OCc2ccc3c(c2)CCN(C2CCOCC2)C3)n1 class_assignment=1
compound="COc1c(C(=O)O)cnn1-c1cccc(-c2cccc(C)c2OCc2ccc3c(c2)C(C)(C)CN(CC2COCCO2)C3)n1 (stereo not drawn)" class_assignment=1
compound="COCC(C)N1CCc2cc(COc3c(C)cccc3-c3cccc(-n4ncc(C(=O)O)c4OC(C)C)n3)ccc2C1 (stereo not drawn)" class_assignment=1
compound=CCOc1c(C(=O)O)cnn1-c1cccc(-c2cccc(Cl)c2OCc2ccc3c(c2)CCN(CCOC)C3)n1 class_assignment=1
compound=COc1c(C(=O)O)cnn1-c1cccc(-c2cccc(C)c2OCc2cc(F)c3c(c2)CCN([C@H]2CCOC2)C3)n1 class_assignment=-1
compound="COc1c(C(=O)O)cnn1-c1cccc(-c2cccc(C)c2OCc2ccc3c(c2)C(C)(C)CN(C2CCCOC2)C3)n1 (stereo not drawn)" class_assignment=1

In plain terms: is recorded solubility at 24 h at least 70 µg/mL for COCC(C)N1CCc2c(ccc(COc3c(C)cccc3-c3cccc(-n4ncc(C(=O)O)c4OC(C)C)n3)c2C)C1 (stereo not drawn) ?
1

In plain terms: is recorded solubility at 24 h at least 70 µg/mL for CCOc1c(C(=O)O)cnn1-c1cccc(-c2cccc(C)c2OCc2ccc3c(c2C)CCN(C[C@H]2CCCCO2)CC3)n1 ?
-1

In plain terms: is recorded solubility at 24 h at least 70 µg/mL for COc1c(C(=O)O)cnn1-c1cccc(-c2cccc(C)c2OCc2cc(C)c3c(c2)CCN(C2COC2)C3)n1 ?
1

In plain terms: is recorded solubility at 24 h at least 70 µg/mL for COc1c(C(=O)O)cnn1-c1cccc(-c2cc(F)cc(F)c2OCc2ccc3c(c2)CCN(C2CCOCC2)C3)n1 ?
-1

In plain terms: is recorded solubility at 24 h at least 70 µg/mL for CCOc1c(C(=O)O)cnn1-c1cccc(-c2cccc(C)c2OCc2ccc3c(c2C)CCN([C@H]2CCOC2)CC3)n1 ?
1

----------
# method-summary: Assessment of solubility (McIlvaine buffers, 24 h shake, UPLC-UV)
# Format: physicochemical
# condition-parameters: pH 6.8, aqueous buffer, kinetic from dmso stock
quantity-name: solubility at 24 h (µg/mL)
Write down the numeric answer in µg/mL and omit the unit.

Study these solved cases before continuing.
compound="COc1c(C(=O)O)cnn1-c1cccc(-c2ccc(C)cc2OCc2ccc3c(c2C)CCN(C2CCOCC2)C3)n1 [Compound 99]" observed_measurement=110
compound="COc1c(C(=O)O)cnn1-c1cccc(-c2cccc(C)c2OCc2ccc3c(c2)CCN(C2CCOCC2)C3)n1 [Compound 3]" observed_measurement=81
compound="CC[C@H](C)Oc1c(C(=O)O)cnn1-c1cccc(-c2cccc(C)c2OCc2ccc3c(c2C)CCN(C2CCOC2)C3)n1 (stereo partly shown) [Compound 137]" observed_measurement=110
compound="COc1c(C(=O)O)cnn1-c1cccc(-c2cccc(C)c2OCc2ccc3c(c2)CCN(C2CCOCC2OC)C3)n1 (stereo not shown) [Compound 81]" observed_measurement=79

Given the compound Cc1cccc(-c2cccc(-n3ncc(C(=O)O)c3OC(C)C)n2)c1OCc1ccc2c(c1C)CCN(C1CCOCC1)C2 [Compound 104] , what is its reported solubility at 24 h?
97

Given the compound CCOc1c(C(=O)O)cnn1-c1cccc(-c2cccc(C)c2OCc2ccc3c(c2)CCN(C(C)CS(C)(=O)=O)C3)n1 (stereo not shown) [Compound 70] , what is its reported solubility at 24 h?
64

Given the compound CCOc1c(C(=O)O)cnn1-c1cccc(-c2cccc(C)c2OCc2ccc3c(c2)CCN(CC2CCCO2)C3)n1 (stereo not shown) [Compound 101] , what is its reported solubility at 24 h?
74

----------
# method-summary: Assessment of solubility (McIlvaine buffers, 24 h shake, UPLC-UV)
# Type: physicochemical
# condition-parameters: pH 4.5, aqueous buffer, kinetic from dmso stock
solubility at 24 h for assorted compounds
Write down the numeric answer in µg/mL and omit the unit.

Study these solved cases before continuing.
compound="CCOc1c(C(=O)O)cnn1-c1cccc(-c2cccc(Cl)c2OCc2ccc3c(c2)CCN(C2COC2)C3)n1 [Compound 51]" observed_measurement=83
compound="CCOc1c(C(=O)O)cnn1-c1cccc(-c2cccc(Cl)c2OCc2ccc3c(c2)CCNC3)n1 [Compound 50]" observed_measurement=79
compound="COc1c(C(=O)O)cnn1-c1cccc(-c2cccc(C)c2OCc2ccc3c(c2Cl)CCN(C2CCOC2)C3)n1 (stereo not shown) [Compound 22]" observed_measurement=68

--- query ---
Given the compound CCOc1c(C(=O)O)cnn1-c1cccc(-c2cccc(C)c2OCc2ccc3c(c2C)CCN(C[C@H]2CCO2)CC3)n1 [Compound 226] , what is its reported solubility at 24 h?
83

----------
pEC50 for assorted compounds
# tested-on: human soluble guanylate cyclase alpha 1 and beta 1 subunits (sGC) (Homo sapiens, UniProt Q02108+Q02153)
# Sequence (Q02108 1-690): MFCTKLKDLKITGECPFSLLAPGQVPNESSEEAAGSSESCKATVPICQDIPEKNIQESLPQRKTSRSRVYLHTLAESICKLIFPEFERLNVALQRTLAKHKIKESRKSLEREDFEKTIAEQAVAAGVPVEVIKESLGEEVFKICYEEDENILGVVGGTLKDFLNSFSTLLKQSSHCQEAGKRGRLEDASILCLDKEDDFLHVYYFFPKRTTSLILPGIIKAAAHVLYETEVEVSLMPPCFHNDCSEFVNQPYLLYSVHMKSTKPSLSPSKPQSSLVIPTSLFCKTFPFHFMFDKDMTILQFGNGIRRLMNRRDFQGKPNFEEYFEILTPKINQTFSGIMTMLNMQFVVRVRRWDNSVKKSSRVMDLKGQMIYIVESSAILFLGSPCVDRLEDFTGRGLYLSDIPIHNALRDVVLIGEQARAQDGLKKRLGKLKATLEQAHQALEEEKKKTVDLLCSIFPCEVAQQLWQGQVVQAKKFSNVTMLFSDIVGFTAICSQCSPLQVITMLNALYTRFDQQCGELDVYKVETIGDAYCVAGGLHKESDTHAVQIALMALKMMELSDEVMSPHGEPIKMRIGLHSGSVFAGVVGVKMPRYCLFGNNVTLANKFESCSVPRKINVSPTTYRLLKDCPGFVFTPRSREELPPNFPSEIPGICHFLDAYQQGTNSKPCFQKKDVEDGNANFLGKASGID
# Sequence (Q02153 1-619): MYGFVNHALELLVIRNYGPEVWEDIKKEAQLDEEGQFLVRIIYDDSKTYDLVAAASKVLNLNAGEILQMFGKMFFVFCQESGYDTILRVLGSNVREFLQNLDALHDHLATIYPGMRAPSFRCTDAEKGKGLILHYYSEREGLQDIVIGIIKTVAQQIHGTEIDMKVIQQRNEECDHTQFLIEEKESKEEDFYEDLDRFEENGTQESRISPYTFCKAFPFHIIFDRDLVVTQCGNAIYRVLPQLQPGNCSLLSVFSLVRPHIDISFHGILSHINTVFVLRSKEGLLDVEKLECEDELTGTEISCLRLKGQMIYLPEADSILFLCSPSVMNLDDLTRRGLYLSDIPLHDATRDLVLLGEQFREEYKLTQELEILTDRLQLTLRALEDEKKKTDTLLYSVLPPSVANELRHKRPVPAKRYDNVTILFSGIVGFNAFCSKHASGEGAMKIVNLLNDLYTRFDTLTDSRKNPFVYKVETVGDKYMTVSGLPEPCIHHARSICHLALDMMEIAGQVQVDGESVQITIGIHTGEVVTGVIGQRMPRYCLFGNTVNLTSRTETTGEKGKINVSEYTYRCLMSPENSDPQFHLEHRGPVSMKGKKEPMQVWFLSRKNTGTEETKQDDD
# method-summary: sGC cellular activator assay (cGMP, HTRF)
# condition-parameters: CHO cells stably expressing human sGC alpha 1/beta 1, preincubated with 40 microM ODQ; cGMP readout; assay run with and without 50% human serum, Table 2 does not say which
# Experimental: The sGC cellular activator assay is performed in the presence and absence of 50% human serum (HS) using Chinese hamster ovary cells that have been stably transfected to express the human soluble guanylate cyclase alpha 1 and beta 1 subunits (sGC). […] Diluted compounds are added to cells and they are incubated at room temperature for thirty min. cGMP is measured using a CisBio homogeneous time resolved fluorescence kit and the EC50 is calculated for each compound. […]
// pEC50 is dimensionless: -log10 of concentration (M)

compound=COc1c(C(=O)O)cnn1-c1cccc(-c2cccc(C)c2OCc2ccc3c(c2C)CCN(C[C@H]2COCCO2)CC3)n1 observed_measurement=8.36
compound="CCOc1c(C(=O)O)cnn1-c1cccc(-c2cccc(Cl)c2OCc2ccc3c(c2)CCN(C2CCOC2)C3)n1 (centres unmarked)" observed_measurement=6.96
compound="COCCOc1c(C(=O)O)cnn1-c1cccc(-c2cccc(C)c2OCc2ccc3c(c2C)CCN(C2CCOC2)C3)n1 (centres unmarked)" observed_measurement=7.04

Given the compound CCOc1c(C(=O)O)cnn1-c1cccc(-c2cccc(C)c2OCc2ccc3c(c2C)CCN(C2COC2)CC3)n1 , what is its reported pEC50?
7.40
